Assay: CCTE_Padilla_ZF_Score.Position: CCTE's 144 Hour Post-fertilization zebrafish Assay Score for Position, Padilla Lab (AID 2284409)
Calls of active or inactive are those of the source. How the source made its calls: active means hit-call score of the fitted dose curve at least 0.9, where 1 is the maximum; inactive means score below 0.9.
Mark one answer only. Choices: active, inactive

compound	class
COC(=O)C(F)(F)C(F)(F)C(F)(F)C(F)(F)C(F)(F)F	inactive
CN(CCO)S(=O)(=O)C(F)(F)C(F)(F)C(F)(F)C(F)(F)C(F)(F)C(F)(F)C(F)(F)C(F)(F)F	inactive

Outcome logged for O=C(OC(=O)C(F)(F)C(F)(F)F)C(F)(F)C(F)(F)F in this assay:
inactive

Outcome logged for OCC(F)(F)C(F)(F)C(F)(F)C(F)(F)C(F)(F)C(F)(F)C(F)(F)C(F)(F)C(F)(F)C(F)(F)C(F)(F)F in this assay:
inactive

Outcome logged for FC(OC(F)(F)C(F)(F)C(F)(F)F)C(F)(F)F (centres undefined) in this assay:
inactive

Outcome logged for O=P(O)(O)CCC(F)(F)C(F)(F)C(F)(F)C(F)(F)C(F)(F)C(F)(F)C(F)(F)C(F)(F)F in this assay:
active

Outcome logged for O=C(O)CCC(F)(F)C(F)(F)C(F)(F)C(F)(F)C(F)(F)F in this assay:
active

Outcome logged for FC(F)=C(F)C(F)(F)C(F)(F)C(F)(F)C(F)F in this assay:
inactive

Outcome logged for O=CC(F)(F)C(F)(F)C(F)(F)C(F)F in this assay:
inactive

Measured values drawn from PubChem BioAssay (EPA / NIEHS) for this set.
